tested on: MS2 coat protein; assay: apparent KD of MS2 coat protein; designed switch direction (-1 OFF switch, 1 ON switch): -1; higher = weaker reporter binding; conditions: input ligand: none
As shown below, each of these sequences has a reported apparent KD of MS2 coat protein value.
State just the number; it will be interpreted in nM.

sequence_data | endpoint_name | unit_annotation | observed_value
CCUCGACAUGAGGAUCACCCAUGUGAGGAUAUGGCCUGUAUGGCGUGAGCUGAAUCAAUCAGAAGGCGCGUGGG [salish99_ex1_r4_054] (Eterna round: R97, puzzle: Exclusion 1) | apparent KD of MS2 coat protein | nM | 27
AAAAGGUGAGGAUAUUCAAGGAAAGACAUGAGGAUCACCCAUGUAAGAAAGGAAAAGGGAGGAGAAGGUGUGAAAA [salish99_ex5_r4_136] (Eterna round: R97, puzzle: Exclusion 5) | apparent KD of MS2 coat protein | nM | 60.2

Now consider the entry below.
Query: Give apparent KD of MS2 coat protein for the following sequence: AAACGCAGAGGAUAUACAUAUUUUCCUCAUGUGCAGCUUACACAUGAGGAUCACCCAUGUAGAAGGCUGGAAAA [EX2 A.29] (Eterna round: R97, puzzle: Exclusion 2)
Response: 48.6

###

As shown below, each of these sequences has a reported apparent KD of MS2 coat protein value.
tested on: MS2 coat protein; experiment: apparent KD of MS2 coat protein; higher = weaker reporter binding; details: Eterna round: R107; input ligand: arginine 13.2 mM
State just the number; it will be interpreted in nM.

Some solved cases for reference:
sequence_data | observed_value
AAAAGAGGUGGAAGGAGCGGGAGACAUGAGGAUCACCCAUGUGAUGUGACGAAAGGGUCAGCCCAGGUAGGUCGCCAUGUCGAAA [yuyymullin] | 54.6
ACUUGAUACUGAAGGAGCGUCGGAUAAACUCGCACAUGAGGAUCACCCAUGUAUAUGAAUCGGCAGGUAGGUCGCAGUAUCGAGU [#21 Same State - Arginine B] | 14.8

Now consider the entry below.
Query: Determine reported apparent KD of MS2 coat protein for AUACAUGAGGAUCACCCAUGUCAUUCAGAAGGAGCGUCAUUUUAGACAGGUAGGUCGCUGUUAUUGGUAUUAUACUUUAUGUUUA [JR_ExcArginiA_Sub024] ; test system: MS2 coat protein.
Response: 20.1

###

tested on: K4 kissing-loop RNA reporter; experiment: apparent KD of K4 kissing-loop reporter; higher = weaker reporter binding; conditions: Eterna round: R107; input ligand: theophylline 20 uM;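 also: bound reporter read as fluorescence of individual clusters on recovered sequencing chips by microscopy, with normalized cluster intensities fitted with a binding model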
Output YES for apparent KD of K4 kissing-loop reporter not less than 200 nM; output NO otherwise.

Look over these answered cases.
sequence_data | label
ACUGAGCAUGCGGCCGCCACUUCAGAACGUCGCCCAAAGGGCGACGCCUCCACAGUGAUGUUGUGGAGGACCGGGCAUGUUCAGA [Omei KL Tryp B Exc A v2] | NO
UGACUACAUAAGGAUUAAUCCUAGUGAUGUUAGGAUAUGCUGAUAAGCAGAAGGAACGGAGAUCGAAGGAUCUCAUAUGUAGUCU [whbob_Ex_FMNA__2th195] | NO
AAGUGAUGUUGUAGUGAUGUUGUGAUGUUGCAGGAUAUAUAGUGAUGUAGAAGGGUAAGUACUCAUGUUGUUAGUAAGUGAUGUU [bttutmullin] | NO

Query: Test whether the sequence ACCAUCAAAGAUGGCCAGGACUCCGCUGAUACCAGAGUGGAAACACUCCCUUGGCAGCAGGUGAGUGAUGUUCACAGUCCAUGGA [Omel KL Theo A SS B v4] records apparent KD of K4 kissing-loop reporter of 200 nM or higher.
Response: YES

Query: Test whether the sequence GACAAUUCCGCUUCCGAGCAUACUUGACUGAAGGAUAUCAUCGUGUUGAGAAGGUCAGUAACAGAGAGUGAUGUUCUUUGAGGUC [theeternabot_sameState_KL_FMN_A_19] records apparent KD of K4 kissing-loop reporter of 200 nM or higher.
Response: YES

Query: Test whether the sequence UGGAUAUAGUGAUGUUAUAUAGAGAGUGAUACCAGUUUAGAGAAGAACCCUUGGCAGCAUAAAGAAGUAUCAUUAGAGAAGAAUG [ExTheophyl.Ao] records apparent KD of K4 kissing-loop reporter of 200 nM or higher.
Response: YES
